Data origin: patent US11850235B2

Test system: sNF96.2 cells
assayProcedure: Cell proliferation assay (Cell Counting Kit-8), sNF96.2
Format: cell-based
conditionNotes: Homo sapiens, 72 h
experimentalReadout: IC50 (nM)
Output spec: scalar in nM, unitless text.

Return IC50 measured with sNF96.2 cells given this compound: "COC(=O)Nc1nc2ccc(C(=O)c3ccccc3)cc2[nH]1"
320
